Each record here notes measured glycan array binding signal (z-score).
- target.desc: Gal(b1-4)GlcNAc(b1-2)Man(a1-6)[Man(a1-3)]Man(b1-4)GlcNAc(b1-4)GlcNAc
- assay.explanation: glycan array binding signal (z-score within array); higher = stronger binding
- details: glycan notation: IUPAC condensed, linker removed
Shown is part of a subset that was picked to be rich in the strongest signals.
Output: the number by itself.

{"binder": "OrysaEULS2 (Oryza sativa) (protein) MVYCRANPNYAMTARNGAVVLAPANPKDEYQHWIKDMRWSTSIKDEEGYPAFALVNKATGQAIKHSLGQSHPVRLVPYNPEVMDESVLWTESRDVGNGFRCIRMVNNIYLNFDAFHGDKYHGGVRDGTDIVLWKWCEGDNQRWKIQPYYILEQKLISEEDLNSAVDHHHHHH", "quantitative.readout": 5.65}
{"binder": "his-Lectin-24A (Drosophila melanogaster) (protein) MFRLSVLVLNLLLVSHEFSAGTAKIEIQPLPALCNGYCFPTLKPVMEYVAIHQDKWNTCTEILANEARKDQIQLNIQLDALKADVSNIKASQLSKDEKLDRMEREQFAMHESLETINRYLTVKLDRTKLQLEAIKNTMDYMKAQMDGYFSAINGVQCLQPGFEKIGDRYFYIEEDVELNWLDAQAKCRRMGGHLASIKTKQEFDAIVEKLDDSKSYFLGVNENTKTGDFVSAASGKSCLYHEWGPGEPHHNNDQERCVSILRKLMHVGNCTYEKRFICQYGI", "quantitative.readout": 2.68}
{"binder": "Thrombomodulin (Mus musculus) (protein) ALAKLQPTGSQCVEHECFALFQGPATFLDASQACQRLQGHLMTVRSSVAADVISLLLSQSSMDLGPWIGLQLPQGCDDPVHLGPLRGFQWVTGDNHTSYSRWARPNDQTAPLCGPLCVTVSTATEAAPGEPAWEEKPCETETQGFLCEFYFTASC", "quantitative.readout": 0.088}
{"binder": "OS9-MRH (Homo sapiens), Q13438 (protein) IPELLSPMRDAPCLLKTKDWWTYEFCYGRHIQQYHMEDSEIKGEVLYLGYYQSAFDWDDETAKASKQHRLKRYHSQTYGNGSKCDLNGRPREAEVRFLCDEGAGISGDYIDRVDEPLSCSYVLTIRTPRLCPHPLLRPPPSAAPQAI", "quantitative.readout": 1.24}
{"binder": "SalT (Orysata sativa) (protein) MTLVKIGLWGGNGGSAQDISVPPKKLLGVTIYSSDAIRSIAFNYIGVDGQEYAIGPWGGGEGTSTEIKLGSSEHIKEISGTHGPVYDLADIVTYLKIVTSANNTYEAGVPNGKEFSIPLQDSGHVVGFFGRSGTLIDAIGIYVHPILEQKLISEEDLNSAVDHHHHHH", "quantitative.readout": 4.64}

Next binder, please.
Query: glycan array binding signal (z-score); subject: Gal 9 (Homo sapiens), O00182 (protein) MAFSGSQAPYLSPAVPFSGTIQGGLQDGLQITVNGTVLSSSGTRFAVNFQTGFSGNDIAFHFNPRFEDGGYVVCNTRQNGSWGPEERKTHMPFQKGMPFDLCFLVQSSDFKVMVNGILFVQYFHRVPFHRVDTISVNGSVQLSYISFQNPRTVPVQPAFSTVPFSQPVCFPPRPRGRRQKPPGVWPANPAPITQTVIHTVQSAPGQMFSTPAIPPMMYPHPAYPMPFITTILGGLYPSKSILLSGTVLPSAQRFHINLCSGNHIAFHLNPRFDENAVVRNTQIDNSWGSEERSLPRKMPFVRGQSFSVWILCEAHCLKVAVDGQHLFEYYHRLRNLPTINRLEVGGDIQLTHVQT
0.09
